EXPERIMENT SUMMARY: qHTS of pediatric cancer cell lines to identify multiple opportunities for drug repurposing: Confirmatory screen for SK-N-SH cells (AID 1347129);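 further: cells exposed to compound for 48 h before viability read; nearly all actives have a fitted effect of over 60% in size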
MEASUREMENT CONTEXT: SK-N-SH neuroblastoma cell viability; series mostly up to 46.1 µM
Inconclusive results are not listed. The source made the active and inactive calls. The call rests on the fitted dose curve; in most records, active means well fitted cell-killing curve with a large enough effect; inconclusive means small, poorly fitted or top-dose-only effect; inactive means flat fitted curve, though single readings scatter.
Possible outcomes: YES for active, NO for inactive

[[record]]
molecule = "NC12CC3CC(CC(C3)C1)C2"
assigned_class = "NO"

[[record]]
molecule = "O=C(Nc1ccc([N+](=O)[O-])cc1Cl)c1cc(Cl)ccc1O"
assigned_class = "YES"

[[record]]
molecule = "CN(Cc1cnc2nc(N)nc(N)c2n1)c1ccc(C(=O)N[C@@H](CCC(=O)O)C(=O)O)cc1"
assigned_class = "NO"

[[record]]
molecule = "CS(=O)(=O)CCNCc1ccc(-c2ccc3ncnc(Nc4ccc(OCc5cccc(F)c5)c(Cl)c4)c3c2)o1"
assigned_class = "YES"

[[record]]
molecule = "Clc1ccc2nsnc2c1NC1=NCCN1"
assigned_class = "NO"

[[record]]
molecule = "COc1cc2c(c(OC)c1OC)-c1ccc(OC)c(=O)cc1[C@@H](NC(C)=O)CC2"
assigned_class = "NO"

[[record]]
molecule = "CC(C)Cc1ccc(C(C)C(=O)O)cc1 (stereo not given)"
assigned_class = "NO"

[[record]]
molecule = "CC(CCc1ccc(O)cc1)NCCc1ccc(O)c(O)c1 (stereo not given)"
assigned_class = "NO"

[[record]]
molecule = "O=C1c2c(O)ccc(O)c2C(=O)c2c(NCCNCCO)ccc(NCCNCCO)c21"
assigned_class = "YES"

[[record]]
molecule = "CC(C)C(=O)Nc1ccc([N+](=O)[O-])c(C(F)(F)F)c1"
assigned_class = "NO"

